# key: entry, value: melting point

Recorded results for 8 compounds are shown here.
INSERT INTO measurements (compound, measured_value) VALUES
  ('CCOC(=O)c1nc2c(=O)[nH]c3cc(C(F)(F)F)ccc3n2c1Cn1ccnc1C', '> 250 °C'),
  ('O=C(O)C1=Cc2cc(OCc3ccccc3)c(OCc3ccccc3)cc2CC1', '173 to 176 °C'),
  ('CCOC(=O)C(C)Oc1ccc(N(C)c2cc3ccc(Cl)cc3c(Cl)n2)cc1 (centres undefined)', '86 °C'),
  ('CCc1c(OC)cc(/C=C(\SC)S(C)=O)cc1OC (centres undefined)', '82 to 83 °C'),
  ('Cc1nc(-n2ccc(COc3ccccc3)cc2=O)sc1C(=O)NCc1ccccc1', '175 to 177 °C'),
  ('COc1cc(-c2ccc(C(F)(F)F)cc2)c(C(C)=NOCc2ccc([N+](=O)[O-])cc2)cc1O', '112 to 114 °C'),
  ('CCCCOc1ccc(C(=O)N[C@@H]2CCc3cccc(C4CCN(C)CC4)c3C2)cc1', '162 to 164 °C'),
  ('COc1cccc([C@H]2O[C@H](CC(=O)Nc3cc(C(=O)O)ccc3C)C(=O)N(CC(C)(C)CO)c3ccc(Cl)cc32)c1OC', '172 to 173 °C');

// next entry
Ask: Please give the measured melting point for this compound: COc1ccc(Cn2c(=O)c(Cl)nc3ccc4ccccc4c32)c(OC)c1
Reply: 186 °C

---

Assay Readout: melting point

Here are 5 compounds together with their reported answers.
INSERT INTO assay_data (compound, assay_readout, measured_value) VALUES
  ('Ic1ccc(N(c2ccccc2)c2ccccc2)cc1', 'melting point', '102 to 104 °C'),
  ('CCCC(=O)c1cc(-c2ccccc2)no1', 'melting point', '89 to 90 °C'),
  ('O=C(O)c1ccc(CCC(=O)c2ccccc2)cc1', 'melting point', '145 to 147 °C'),
  ('CN(c1nc(Nc2ccc(O)cc2)nc(NC2CCCCCC2)n1)C1CCNCC1', 'melting point', '130 °C'),
  ('Nc1cc(C(=O)O)cc(OCc2ccccn2)c1C(=O)c1ccccc1', 'melting point', '212 to 213 °C');

Turning now to a further compound:
Ask: Name the reported melting point value associated with the compound CC(C)(C)OC(=O)CC1(CC(=O)O)CCC(=O)Nc2ccccc21 (stereo unspecified)
Reply: 117 to 119 °C

---

Assay Readout: melting point

Some compounds with known melting point results, for comparison:
INSERT INTO results (compound, assay_readout, measured_value) VALUES
  ('Cc1cccc(-c2c(CBr)n(C)c(=O)n(C)c2=O)c1', 'melting point', '136 to 137 °C'),
  ('CCC1(C2CCCC2)Cc2cc(OCCCC(=O)O)c(Cl)c(Cl)c2C1=O (configuration not stated)', 'melting point', '189 to 193 °C'),
  ('NC(=S)c1ccccc1Nc1cccc(C(F)(F)F)c1', 'melting point', '106 to 108 °C'),
  ('CC(Oc1nn(-c2ccccc2)cc1-c1ccccc1)C(=O)O (configuration not stated)', 'melting point', '175 to 178 °C'),
  ('COc1cc(Sc2nc(C)c(CC(=O)O)s2)nc(OC)n1', 'melting point', '164 to 165 °C'),
  ('O=C(O)CCCCCn1c2ccccc2c(=O)c2ccccc21', 'melting point', '167 °C');

Ask: Value lookup for melting point; key = COc1ccc(NC(C)=O)cc1NC(=O)NC(=O)c1cc(F)c(F)cc1Cl
Reply: 225 to 228 °C

Ask: Fill in: melting point of NCC(c1ccccc1)C(CN)c1ccccc1 (configuration not stated) is ___
Reply: 144 to 145 °C

Ask: State the recorded melting point for this entry: CCCOc1ccccc1-c1nc2cc3ncn(CC)c3cc2c(=O)[nH]1
Reply: 212 to 214 °C

---

Assay Readout: melting point

Take a look at these entries with their results.
INSERT INTO measurements (compound, assay_readout, measured_value) VALUES
  ('O=C(O)c1cn2c3c(cc(F)cc3c1=O)CCC2C(F)(F)F (stereo not given)', 'melting point', '295 to 297 °C'),
  ('CCOC=C(C=C(C#N)C#N)CCc1ccc(C(=O)OC)cc1', 'melting point', '136 to 137 °C'),
  ('CCOC(=O)CS(=O)(=O)CCC=C1SC=CS1', 'melting point', '103 to 104 °C'),
  ('O[C@H](COc1cccc2[nH]ccc12)CN1CCC(c2c[nH]c3cc(Cl)ccc23)CC1', 'melting point', '90 to 95 °C');

Shift focus to the following entry.
Ask: Tell me the measured melting point of COc1ccc(C2CCOCC2)c2sc(NC(=O)N3CCOCC3)nc12 , please.
Reply: 217 to 220 °C

---

The molecules listed here are annotated with their melting point.

Consider the worked cases shown below.
INSERT INTO assay_data (molecule, measured_value) VALUES
  ('CCCCc1nc2ccccc2n1Cc1ccc(C(=O)O)c(C)c1', '191 to 192 °C'),
  ('CCN(CC)C(=O)C(=O)c1c[nH]c2c1ccc1c3ccccc3[nH]c12', '> 295 °C'),
  ('CN1CCN(c2nc(-c3ccc(Cl)cc3)c(CCC(=O)O)o2)CC1', '157 to 160 °C');

Ask: Dear colleague, I am looking for the recorded melting point of the following molecule: COc1ncccc1-c1[nH]c2ccccc2c1C1CCN(S(=O)(=O)c2ccccc2)CC1
Reply: 231 to 234 °C

Ask: Would you mind telling me what melting point value was observed for O=C(OCc1ccccc1)n1ccc2c(O)cccc21 ?
Reply: 118 to 120 °C

Ask: What value of measured melting point is listed for CCN1CCCC1CNC(=O)c1cc(N(C)S(=O)(=O)CC)ccc1OC (stereo not given) ?
Reply: 85 to 87 °C

Ask: Which melting point is listed for Cc1cnc2c(NC(=O)c3c(Cl)cccc3Cl)ccc(Cl)c2c1Cl ?
Reply: 222 to 233 °C

Ask: Any idea what its melting point is? The molecule is COc1ccc(Cn2c(O)nc3c(N)nc4ccccc4c32)cc1
Reply: > 260 °C

Ask: GET /values?readout=melting point&item= CC1(C)C2CC[C@]1(C)C(=O)C(C(=O)Nc1cc(C(F)(F)F)cc(C(F)(F)F)c1)C2=O (stereo not given in full)
Reply: 68 to 72 °C

Ask: Given the entry CCCOc1cc(CCCOc2c(CC(=O)O)cccc2OC)n(Cc2ccc3ccccc3n2)n1 , report its measured melting point.
Reply: 97 to 98 °C

---

Assay Readout: melting point

Please review the entries below; each comes with its answer.
INSERT INTO measurements (compound, measured_value) VALUES
  ('O=C(C=Cc1cc(O)c(O)cc1O)OCCc1ccccc1', '146 to 149 °C'),
  ('CC(C)(C)c1cc(-c2nc(CC(=O)O)co2)cc(C(C)(C)C)c1O', '166 to 168 °C');

Ask: What value of melting point has been recorded for this entry: CSC(N)=C(Cc1ccccc1)[N+](=O)[O-]
Reply: 112 °C

Ask: Entry O=Cc1c[nH]c2ccc(Nc3ncnc4cc(-c5ccccc5)sc34)cc12 has what melting point?
Reply: 174 to 175 °C

---

This section presents compounds with their documented melting point values.

INSERT INTO assay_data (compound, measured_value) VALUES
  ('Cc1cc(O)c(S(=O)C(C)(C)C)c(=O)o1 (stereo unspecified)', '119 °C'),
  ('O=c1c2c(Cc3ccccc3Cl)n[nH]c2c2cccnc2n1-c1cccc(C(F)(F)F)c1', '276 to 278 °C'),
  ('CCOC(=O)c1cn(-c2cc(N)c(F)cc2F)c2c(C)c(F)c(F)c(N)c2c1=O', '134 to 135 °C'),
  ('COC(=O)c1ccc(CN([C@@H](C)c2ccccc2)S(=O)(=O)c2ccc(Cl)cc2)cc1', '105 to 106 °C'),
  ('Oc1ccc(NC2Cc3ccccc3C2)cc1', '165 to 167 °C');

Ask: Requested field: melting point. Item: O=C(Nc1cccc(C(=O)O)c1)OCc1ccccc1
Reply: 218 to 219 °C

Ask: Consider the compound shown here: CC1CCc2c(N3CCN(S(=O)(=O)C(F)(F)F)CC3)c(Cl)cc3c(=O)c(C(=O)O)cn1c23 (stereo unspecified) What is its recorded melting point?
Reply: 232 to 235 °C

Ask: Could you share which melting point value was measured for CC(CCCCCOCCc1ccccc1)NCC(O)c1ccc(O)c2[nH]c(=O)ccc12 (stereo unspecified) ?
Reply: 134 to 138 °C

Ask: Record request: melting point value, item CC(C)Nc1cccnc1N1CCN(C(=O)c2ccc(C(=O)N(CCO)CCO)cc2)CC1
Reply: 161 to 162 °C

Ask: melting point for Cn1cc(C(=O)O)c(=O)c2c3cc(F)c(N4CCCC4)cc3ncc21 ?
Reply: 365 °C

Ask: For the compound O=c1c2ccoc2c2cccnc2n1-c1ccccc1 , what melting point is on record?
Reply: 245 to 247 °C

Ask: Query (compound): CCNC1CC=C(c2c[nH]c3ccc(NC(=N)c4cccs4)cc23)CC1 (stereo unspecified) ; field requested: melting point
Reply: 190 to 192 °C

Ask: Given the compound COc1c(C=NO)ccc2c1OCO2 , what is its reported melting point?
Reply: 118 to 119 °C

Ask: Requested field: melting point. Item: N#CCCNC(=O)c1cccc(-c2ccc3c(c2)N(Cc2cc(Cl)cc(Cl)c2)CC3)c1
Reply: 179 to 180 °C

Ask: What value of measured melting point is listed for CC1(Cc2ccc(Cl)c(Cl)c2)OC(=O)N(Cc2cc(C(F)(F)F)cc(C(F)(F)F)c2)C1=O (stereo unspecified) ?
Reply: 80 to 82 °C

// provenance: a melting point compilation (Tetko et al.; mined from patent text by program, amines drawn as free bases though some values may be those of a salt)
